This collection of values is drawn from patent US20210363269A1.

Attribute: koff
Target: T1, human SIRP-α v1 D1 domain (human, UniProt P78324 31-149)
T1 construct: also called human v1
T1 sequence (P78324 31-149 limits assumed): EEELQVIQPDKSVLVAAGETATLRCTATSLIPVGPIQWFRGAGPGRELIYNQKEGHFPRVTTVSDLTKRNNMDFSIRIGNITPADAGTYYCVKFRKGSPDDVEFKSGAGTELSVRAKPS
Assay: SPR, Langmuir fit

binder: S3 (scFv, V domains shown, also called clone 3; scFv-Fc form of AB3) VH: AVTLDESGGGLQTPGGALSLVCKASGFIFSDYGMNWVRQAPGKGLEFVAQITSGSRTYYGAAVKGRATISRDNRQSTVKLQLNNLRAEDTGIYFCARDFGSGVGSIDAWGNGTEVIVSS VL: ALTQPASVSANLGGTVKITCSGSRGRYGWYQQRSPGSAPVTVIYRDNQRPSNIPSRFSSSTSGSTSTLTITGVQADDESVYFCGSYDGSIDIFGAGTTLTVL
koff, s⁻¹: 0.00041

binder: S23 (scFv, V domains shown, also called clone 23) VH: DVQLVESGGGVVRPGESLRLSCAASGFTFSSHAMSWVRQAPGKGLEWLAGISAGGSDTYYIDSVKGRFTISRDNSKSSLYLRMNSLTAEDTAVYYCARETWNHLFDYWGLGTLVTVSS VL: ALTQPASVSANPGETVKITCSGGDYYSTYYAWYQQKSPGSAPVTVIHSDDERPSDIPSRFSGSASGSAATLIITGVRVEDEAVYFCGGYDGRTYINTFGAGTTLTVL
koff, s⁻¹: 8.35e-05

binder: S74 (scFv, V domains shown, also called clone 74) VH: DVQLVESGGGVVRPGESLRLSCAASGFTFSSNAMSWVRQAPGKGLEWLAGISAGDSDTYYPASVKGRFTISRDNPKNTLYLQMNTLTAEDTAVYYCARETWNHLFDYWGLGTLVTVSS VL: ALTQPASVSANPGETVKIACSGGSYYSYYYGWYQQKSPGSALVTVIYSDDKRPSGIPSRFSGSASGSTATLTITGVRAEDEAVYYCGGYDYSSYTNDFGAGTTLTVL
koff, s⁻¹: 0.000161
